Value source: the supplement of paper PMC9170038

- System: MS2 coat protein
- experimentalDetails: apparent KD of MS2 coat protein; higher = weaker reporter binding
- assayContext: Eterna round: R107; input ligand: theophylline 2 mM
Classification field: true (1) = apparent KD of MS2 coat protein at or over 0.1 µM; false (0) = apparent KD of MS2 coat protein under 0.1 µM.

>>> grouplabel("AAAUAAUAUUAAUUAAUUAUAUUAUUCUGACGAGGACCGGUACGGCCGCCACUCGGCCCAUGGUACAUGAGGAUCACCCAUGUCU [Same State - Tryptophan A]")
"false (0)"
>>> grouplabel("UACAUGAGGAUCACCCAUGUGUAGAGGGAUACCAGUGACAGUAAGCACCCUUGGCAGCCCGUGAACAAAGGGUGGGCAAAAUAGU [#16 Exclusion-TheophyllineA]")
"false (0)"
>>> grouplabel("GCUAGGUCAUCGGCCGCCACUAUUAGUGGUUCGAACAUGAGGAUCACCCAUGUGCCACAUGCGCAUAGGACCGGGAUGACCUAGC [SSTB NP+V+V2 #8]")
"false (0)"
>>> grouplabel("CUAUAAUAUAGAAGGAGCGUCGAAAAUGGGUAAACAUGAGGAUCACCCAUGUAAAGGGAACGACAGGUAGGUCGCUAUAUUAUAG [AstromonsSSArgB#12]")
"true (1)"
>>> grouplabel("AAUUAAACAUCGGCCGCCACUUACUCAUGAGGUAACAACAUGAGGAUCACCCAUGUUUGAGGAUCAAGGACCGGGAUGUAAUUUU [AstrosSSTryB#3]")
"false (0)"
>>> grouplabel("GAUUACAUGAGGAUCACCCAUGUAACUGAAGGAGCGGUAAUAAAGCCAGGUAGGUCGCAGAACGACAUGUGGUUCAUCCAUGUAA [#15 Exclusion - Arginine A]")
"false (0)"
>>> grouplabel("UACAUGAGGAUCACCCAUGUCCCAUGUGAACGAGGACCGGUACGGCCGCCACUCGACCGAGGCGGCACAUGAGGAUCACCCGCAU [whbob_SS_trypto A_2s15]")
"true (1)"
>>> grouplabel("UGGGUCGGAUGAGUAAAUUGUCCGACGUAUCGAGGACCGGUACGGCCGCCACUCGGUUGUACAUGAGGAUCACCCAUGUCAGGGU [#1 Same State - Tryptophan A Attempt #16 (HarryS)]")
"true (1)"
>>> grouplabel("AAUUGGCACUGAAGGAGCGAGUUUACCUAAAUAACAUGAGGAUCACCCAUGUAAAAUGGGACUCAGGUAGGUCGCAGUUGUCAAA [Same State Arginine B GF 22]")
"false (0)"
>>> grouplabel("UUGAUCAUAUAUGAAAACAUAUAUGCAGAAGGAGCGUGAUAAAACACAGGUAGGUCGCUGAAGGGAACAUGAGGAUCACCCAUGU [AstrosSSArgA#3]")
"false (0)"

====

- Tested on: MS2 coat protein
- experimentalDetails: apparent KD of MS2 coat protein; designed switch direction (-1 OFF switch, 1 ON switch): 1; higher = weaker reporter binding
- assayContext: Eterna round: R95; input ligand: microRNA oligo, concentration not stated
The entries below are paired with their reported apparent KD of MS2 coat protein.
observationType: apparent KD of MS2 coat protein (nM)

>>> reportedvalue("UCAACUUCUUUUAGUGUGUUGCCAGUUUUACAUGAGGAUCACCCAUGUUAAGUAUUGUGGUAUUUUGUUCGUCUUAA [JR_SHM208A_Sub073] (puzzle: Sensor for hsa-mir-208a)")
14.3
>>> reportedvalue("AGUCCAGCCUGAGCUGGACAAAAGCAUGUACAUGAGGAUCACCCAUGUCAUGUACAAGCUUUUUGCUCGUCUUGAAA [Zipper 46 - 9] (puzzle: Sensor for hsa-mir-208a)")
16.8
>>> reportedvalue("CUGUGUUGCGGGCAGGAUAUGUAUUGGAGUACAUGAGGAUCACCCAUGUGCGGGUGUUUCACCCGACAGAAGGGCCAAUCGCGAC [JL-ss2-3.22 ViennaUCT mod] (puzzle: Same State 2)")
76.7
>>> reportedvalue("AUAAGUUCGAUGCUCGUCUCUCCGUACAAACAUGAGGAUCACCCAUGUGAUUGAGCAGUAGCCCAAUCAGUAUGGCC [Tileus] (puzzle: Sensor for hsa-mir-208a)")
23.9
>>> reportedvalue("UUAUAACAUGAGGAUCACCCAUGUCAACAAAGUCGAGGAUAUGGGCAUAGAUUAUAAGAACCAGAAGGCGAAUAUU [Mat - Same State 1 - Mod of UCT - D40] (puzzle: Same State 1)")
117
>>> reportedvalue("GAAUAACAUGAGGAUCACCCAUGUAAUAUAAUGGGAGGAUAUCUGAAUUAAUUAUAUUAAGGAGAAGGCCUAUAUG [Mat - Same State 1 - Mod of Eli - D54] (puzzle: Same State 1)")
204
>>> reportedvalue("ACAAGACAUGAGGAUCACCCAUGUCCCAAUGACACAGGAUAUCGGUAGGCAUAGCCUACGCGAGAAGGGUGACUUC [Same State 1 - Mod of Vinnie Gere v.1] (puzzle: Same State 1)")
68.3
>>> reportedvalue("GCAUUACAUGAGGAUCACCCAUGUCUCUAAAGUCGAGGAUAUGGGCAGGUUAUAUCCGAACCAGAAGGCGAAUUGC [SS1 Teenbexe 10] (puzzle: Same State 1)")
244
>>> reportedvalue("UCCGCUAUCUAGAAGGAUAUGCGUAAAUAAACAUGAGGAUCACCCAUGUACCGGCGAAAGCCGGUGCAGAAGGUUUAGCUAGUGA [Xeisgexe] (puzzle: Same State 2)")
574
>>> reportedvalue("UAAGAACAUGAGGAUCACCCAUGUGGAAAGAACACAGGAUAUCAUGGAAGAACGAAACCAUGAGAAGGGUGACACG [Raatis] (puzzle: Same State 1)")
225
